test system: ATP; assay: switch fluorescence ratio, 500 uM ATP over buffer (Cy3 cluster intensity, sum of 5 cycles each) (fold (ratio)); higher = stronger signal-on switching upon ATP binding; sequences stand for … in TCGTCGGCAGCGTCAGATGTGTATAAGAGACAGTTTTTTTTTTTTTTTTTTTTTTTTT…TC; details: aptamer strand: ATP DNA aptamer (quencher-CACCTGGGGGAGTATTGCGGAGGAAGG + anchor), 100 nM annealed; ATP concentration: 500 uM;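 further: ATP exposure 15 min at 22 °C before imaging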
Readings of switch fluorescence ratio for the listed sequences
measurement-type: switch fluorescence ratio

INSERT INTO assay_data (polymer_sequence, measured_value) VALUES
  ('TGAGGTGAAA', 0.976),
  ('ATACGTTGG', 0.975),
  ('TGCTGTGTTT', 1.02),
  ('TGGGGTCAAG', 0.991),
  ('GGGCCGGGAG', 0.984),
  ('CTTGATGTTG', 1.01),
  ('ATTTGGTTTT', 0.999),
  ('TTTTAAGAAG', 1.02),
  ('TGTTGGGTGT', 1.01),
  ('CTCGGACAAG', 0.996),
  ('AAGGGGCCGC', 0.982),
  ('GGGTGGTAGA', 1.01),
  ('GTTGTGCCTG', 1.01),
  ('AGATTTGGCT', 0.995),
  ('TAATTTTGTT', 1.02),
  ('AAGGGACTTG', 0.995),
  ('CTGAGTCGTG', 1),
  ('TATCGGTCTA', 1.01),
  ('GGAATGCCGG', 1.02),
  ('ACAGTAGGAA', 1.08),
  ('TACATCATCG', 1.14),
  ('TTGTGGTCCT', 0.974),
  ('TCGGTAAATG', 1.04),
  ('TAGACACAGC', 1.02),
  ('CAGTAGGGGG', 0.977),
  ('TAGCGGGCGT', 0.964),
  ('GGGGGCCGCC', 0.988),
  ('CGCTTAAAGT', 1.03),
  ('TGACAGGGGA', 1.02),
  ('ATCAGTGGTC', 0.936),
  ('TGGAAGGGAG', 0.974),
  ('GCCTTAAAGG', 1.01),
  ('CTCATCGGCT', 1.03),
  ('ACGTTTGGCT', 0.954),
  ('TTTTTGGCTG', 0.982),
  ('CTATTCCGAG', 1.16),
  ('TATCGGTTAT', 0.984);

---

test system: ATP; experiment: switch fluorescence ratio, 500 uM ATP over buffer (Cy3 cluster intensity, sum of 5 cycles each) (fold (ratio)); higher = stronger signal-on switching upon ATP binding; sequences stand for … in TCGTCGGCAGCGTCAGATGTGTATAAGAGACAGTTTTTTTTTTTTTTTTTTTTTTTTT…TC; details: aptamer strand: ATP DNA aptamer (quencher-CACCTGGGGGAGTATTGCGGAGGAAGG + anchor), 100 nM annealed; ATP concentration: 500 uM;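 further: ATP exposure 15 min at 22 °C before imaging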
# switch fluorescence ratio annotations
measurement-type: switch fluorescence ratio

INSERT INTO assay_data (polymer_sequence, measurement_type, measured_value) VALUES
  ('AATGCCTGGT', 'switch fluorescence ratio', 0.984),
  ('TCCGATGAGG', 'switch fluorescence ratio', 1.05),
  ('CTGTCGCTTA', 'switch fluorescence ratio', 1.01);
